experiment: Cytotoxicity assay in MT-4 cells; format: cell-based; settings: human; uninfected MT-4 cells, 5 days incubation, Cell Titer Glo; read-out: MT4 CC50
measurement_label: CC50 at 5 days (µM)
Please reply with the bare figure in µM and do not write the unit itself.

The cases that follow already have their CC50 at 5 days on record.
CCCCCCOC(=O)OCOc1c2n(cc(C(=O)NCc3ccc(F)cc3F)c1=O)[C@@H]1CN(C2=O)[C@@H](C)CC[C@]12CC(C)=NO2 [Example 181] ... 14.7
COC1=NO[C@@]2(CC[C@H](C)N3C[C@H]2n2cc(C(=O)NCc4ccc(F)cc4F)c(=O)c(OCOC(=O)OCCCC(C)C)c2C3=O)C1 [Example 204] ... 29.8
CCCCCCCCCCOC(=O)Oc1c2n(cc(C(=O)NCc3ccc(F)cc3F)c1=O)[C@@H]1CN(C2=O)[C@@H](C)CC[C@]12CC(C)=NO2 [Example 139] ... 13.2

Let us move to another entry and its CC50 at 5 days.
Sure, the documented CC50 at 5 days for COC1=NO[C@@]2(CC[C@H](C)N3C[C@H]2n2cc(C(=O)NCc4ccc(F)cc4F)c(=O)c(OC(=O)OCCCCCC(C)C)c2C3=O)C1 [Example 157] is 15.4

###

Assay: Cytotoxicity assay in MT-4 cells
Format: cell-based
Conditions: human; uninfected MT-4 cells, 5 days incubation, Cell Titer Glo; read-out: MT4 CC50
Method: Compounds were tested in a high-throughput 384-well assay format for their ability to inhibit the replication of HIV-1 (IIIB) in MT-4 cells. […] After 5 days incubation in a humidified and temperature controlled incubator (37° C.), Cell Titer Glo (Promega) was added to the assay plates and chemiluminescence read using an Envision plate-reader. […]
So basically: is CC50 at 5 days under 30 µM? Then TRUE. Not under? Then FALSE.

// known answers, use as guide
CCCCCOC(=O)Oc1c2n(cc(C(=O)NCc3ccc(F)cc3F)c1=O)[C@@H]1CN(C2=O)[C@@H](C)CC[C@]12CC(C)=NO2 [Example 129] ... TRUE
CCCCCCCCCOC(=O)OCOc1c2n(cc(C(=O)NCc3ccc(F)cc3F)c1=O)[C@@H]1CN(C2=O)[C@@H](C)CC[C@]12CC(OC)=NO2 [Example 187] ... FALSE
COC1=NO[C@@]2(CC[C@H](C)N3C[C@H]2n2cc(C(=O)NCc4ccc(F)cc4F)c(=O)c(OC(=O)OC(C)C)c2C3=O)C1 [Example 30] ... TRUE
COCCOCCOC(=O)Oc1c2n(cc(C(=O)NCc3ccc(F)cc3F)c1=O)[C@@H]1CN(C2=O)[C@@H](C)CC[C@]12CC(C)=NO2 [Example 8] ... TRUE

# input Decide: CC50 at 5 days of CCC(=O)Oc1c2n(cc(C(=O)NCc3ccc(F)cc3F)c1=O)[C@@H]1CN(C2=O)[C@@H](C)CC[C@]12CC(OC)=NO2 [Example 32] strictly below 30 µM?
# output FALSE

# input Hello, I'm reviewing records and need to know if CC50 at 5 days of CCCCCCCCC(=O)Oc1c2n(cc(C(=O)NCc3ccc(F)cc3F)c1=O)[C@@H]1CN(C2=O)[C@@H](C)CC[C@]12CC(OC)=NO2 [Example 42] is below 30 µM. Could you check?
# output FALSE
